Could you please report measured pest or weed control at 140 g/ha for the items listed next?
Tested on: Key Grass and Sedge Weeds as well as Grass Crops
assay_method_text: Post-Emergent Test II: postemergent herbicidal activity, visual rating after 14 d (Table 8)
Assay type: in vivo
assay_context: post-emergence, 336 h, maize, corn (Zea mays), 140 g ai/ha, read-out: Visual Growth Reduction (%) 14 Days After Application ZEAMX

Inquiry: Can you look up the measured pest or weed control at 140 g/ha of COC(=O)c1nc(-c2ccc3c(c2)OC(C)(C)O3)nc(N)c1OC for me?
Reply text: 60 to 74%

Inquiry: So what does the record say about pest or weed control at 140 g/ha for COC(=O)c1nc(-c2ccc3c(c2C)OC(F)(F)O3)cc(N)c1Cl ?
Reply text: 30 to 44%

Inquiry: # pest or weed control at 140 g/ha lookup, item C=Cc1c(C(=O)O)nc(-c2ccc3c(c2)OC(F)(F)O3)c(F)c1N
Reply text: 75 to 84%

Inquiry: Can you look up the measured pest or weed control at 140 g/ha of COC(=O)c1nc(-c2ccc3c(c2Cl)OC(F)(F)O3)cc(N)c1Cl for me?
Reply text: 75 to 84%

Inquiry: pest or weed control at 140 g/ha lookup needed for COC(=O)c1nc(-c2cc3c(cc2Cl)OC(F)(F)O3)cc(N)c1Cl , thanks.
Reply text: 45 to 59%

Inquiry: Bench note: what pest or weed control at 140 g/ha did Nc1c(F)c(-c2ccc3c(c2)OC(F)(F)O3)nc(C(=O)O)c1Cl show?
Reply text: 95 to 100%

Inquiry: # input compound: COC(=O)c1nc(-c2ccc3c(c2)OC(F)(F)O3)c(C)c(N)c1Cl ; wanted: its pest or weed control at 140 g/ha
Reply text: 60 to 74%

Inquiry: Data request, read-out pest or weed control at 140 g/ha, for COC(=O)c1nc(-c2cc3c(cc2F)OCO3)c(F)c(N)c1OC
Reply text: 60 to 74%

Inquiry: Consider the compound shown here: COC(=O)c1nc(-c2cc3c(cc2Cl)OC(F)(F)O3)c(F)c(N)c1Cl What is its recorded pest or weed control at 140 g/ha?
Reply text: 0 to 29%
